As shown below, each of these compounds has a reported activity change, negative = inhibition value.
test: qHTS Assay for inhibitors of the human cytomegalovirus (HCMV); settings: HFF cells, HCMV-luciferase reporter, 72 h; at 57.5 µM; stronger effect = lower value; further: on the % scale 0 is the no-effect control and ±100 the full control effect
The whole screen tested about 410,000 compounds, of which about 18,000 (4.4%) were called active. Roughly 7% stayed inconclusive and do not appear here. The sample as a whole holds a higher share of actives than the screen did.
Quick reminder: number only, in %, skip the unit.

Reference set (5 entries):
CCCCOC(=O)/C(C#N)=C/c1ccc(-c2cccc(C(F)(F)F)c2)o1 = -3.64
O=C(Nc1ccc(N2CCN(C(=O)c3ccccc3)CC2)c(Cl)c1)c1ncn[nH]1 = -25.4
O=C(c1ccccc1F)N1CCC(c2nc3c(nnn3Cc3cccc(F)c3)c(=O)[nH]2)CC1 = 67.9
CCC(=O)N1CCc2cc(CNS(=O)(=O)c3ccc(Br)s3)ccc21 = -28.1
N#C/C(=C\c1ccc(-c2cccc([N+](=O)[O-])c2)o1)C(=O)NCCN1CCOCC1 = -67.8

Next up:
Ask: State the recorded activity change, negative = inhibition for this entry: O=C(CCNS(=O)(=O)c1ccccc1C(F)(F)F)Nc1ccncc1
Result: 6.98

====

test: qHTS Assay for inhibitors of the human cytomegalovirus (HCMV); settings: HFF cells, HCMV-luciferase reporter, 72 h; at 57.5 µM; stronger effect = lower value; further: on the % scale 0 is the no-effect control and ±100 the full control effect
Among all 410,000 compounds or so, about 18,000 (4.4%) were called active. Inconclusive results (about 7%) are left out. This is one part of a sample in which actives are shown more often than they occur.
As shown below, each of these molecules has a reported activity change, negative = inhibition value.
Quick reminder: number only, in %, skip the unit.

Ask: State the recorded activity change, negative = inhibition for this entry: Brc1ccc(Nc2c3c(nc4ncnn24)CCC3)cc1
Result: -30.4

====

test: qHTS Assay for inhibitors of the human cytomegalovirus (HCMV); conditions: HFF cells, HCMV-luciferase reporter, 72 h; at 57.5 µM; stronger effect = lower value; further: on the % scale 0 is the no-effect control and ±100 the full control effect
Out of some 410,000 compounds screened, about 18,000 (4.4%) were called active. Another 7% or so got no clear call; they are omitted. The sample holds actives, similar compounds and a random draw of the others, so the mix is not that of the screen.
As shown below, each of these compounds has a reported activity change, negative = inhibition value.
Quick reminder: number only, in %, skip the unit.

Reference set (2 entries):
COc1ccc(NC(=O)c2cc(=O)[nH]c3ccccc23)cc1S(=O)(=O)N1CCOCC1 = 9.13
COc1ccccc1CNS(=O)(=O)c1ccc2c(c1)NC(=O)CS2 = -16.2

Ask: State the recorded activity change, negative = inhibition for this entry: CCN1C(=O)c2ccccc2S(=O)c2ccc(C(=O)NCc3ccc(F)cc3)cc21 (stereo unspecified)
Result: 6.08

Ask: State the recorded activity change, negative = inhibition for this entry: CCC(Cc1ccccc1)NS(=O)(=O)c1ccc2c(c1)NC(=O)CS2 (stereo unspecified)
Result: -70.6

Ask: State the recorded activity change, negative = inhibition for this entry: Cc1ccn2c(Nc3ccc4c(c3)OCCO4)c(-c3ccc(C)s3)nc2c1
Result: 10.7

Ask: State the recorded activity change, negative = inhibition for this entry: CCN(CC)c1ccc2oc(=O)c(C)nc2c1
Result: -70.4

====

As shown below, each of these compounds has a reported activity change, negative = inhibition value.
test: qHTS Assay for inhibitors of the human cytomegalovirus (HCMV); settings: HFF cells, HCMV-luciferase reporter, 72 h; at 57.5 µM; stronger effect = lower value; further: on the % scale 0 is the no-effect control and ±100 the full control effect
In all, about 410,000 compounds went through this assay and about 18,000 (4.4%) were called active. Roughly 7% stayed inconclusive and do not appear here. Only a selection was taken, and actives are over-represented in it overall.
Quick reminder: number only, in %, skip the unit.

CCOC(=O)C1=C(N)N(c2ccc(C)cc2)C2=C(C(=O)CCC2)C1c1cccs1 (stereo not drawn) = -86.5
Cc1ccc(OCc2n[nH]c(=S)n2-c2ccccc2)cc1 = -60.4
CCOc1ccc(CNC(=O)c2cc(-c3ccc(Cl)s3)nc3ccccc23)cc1 = 1.58
COc1cc(C(=O)NNC(=O)c2ccc(S(=O)(=O)N3CCCCC3)cc2)cc(OC)c1OC = 41.5
CCOC(=O)c1cc2c(n(-c3ccc(C)cc3)c1=O)CCCC2=O = -27.5
Cc1cc(C)c(NC(=O)CN2CCCCCC2)c(C)c1 = -39.4

Ask: State the recorded activity change, negative = inhibition for this entry: CN(C)CCNC(=O)Cc1ccc([N+](=O)[O-])cc1
Result: -3.93

Ask: State the recorded activity change, negative = inhibition for this entry: O=S(=O)(NCCc1ccc(F)cc1)c1cccc2cccnc12
Result: -31.1

Ask: State the recorded activity change, negative = inhibition for this entry: O=C(Nc1cccc(S(=O)(=O)N2CCCCC2)c1)c1ccc2c(c1)OCO2
Result: -69
